# PROTOCOL_TEXT: TRM-201-PK-102 single-dose four-period crossover pharmacokinetic study, fasted healthy subjects
# Format: in vivo, human
# MEASUREMENT_PARAMETERS: female, human, plasma, oral, 17.5 mg, 102 study, females, read-out: arithmetic mean AUC0-∞
VALUE_KIND: AUC(0-inf) (ng·h/mL)
Express your answer in ng·h/mL, writing the number without its unit.

Kindly note the recorded AUC(0-inf) for CS(=O)(=O)c1ccc(C2=C(c3ccccc3)C(=O)OC2)cc1 [TRM-201] , which is 3650

---

# PROTOCOL_TEXT: TRM-201-PK-102 single-dose four-period crossover pharmacokinetic study, fasted healthy subjects
# Type: in vivo, human
# MEASUREMENT_PARAMETERS: human, plasma, oral, 12.5 mg, 102 study, 53-60 years, read-out: arithmetic mean Cmax
VALUE_KIND: Cmax (ng/mL)
Write the value in ng/mL as a bare number.

# Cmax (compound: CS(=O)(=O)c1ccc(C2=C(c3ccccc3)C(=O)OC2)cc1 [TRM-201] ) is 150

---

# PROTOCOL_TEXT: TRM-201-PK-102 single-dose four-period crossover pharmacokinetic study, fasted healthy subjects
# Type: in vivo, human
# MEASUREMENT_PARAMETERS: human, plasma, oral, 20 mg, 102 study, White subjects, read-out: geometric mean Cmax
VALUE_KIND: Cmax (µg/mL)
Number only, in µg/mL; omit the unit.

The recorded Cmax for entry CS(=O)(=O)c1ccc(C2=C(c3ccccc3)C(=O)OC2)cc1 [TRM-201] equals 0.25

---

# PROTOCOL_TEXT: TRM-201-PK-102 single-dose four-period crossover pharmacokinetic study, fasted healthy subjects
# Type: in vivo, human
# MEASUREMENT_PARAMETERS: human, plasma, oral, 25 mg, 102 study, Hispanic or Latino subjects, read-out: geometric mean Cmax
VALUE_KIND: Cmax
Give me the value, and tack the unit on after it.

# Cmax (molecule: CS(=O)(=O)c1ccc(C2=C(c3ccccc3)C(=O)OC2)cc1 ) is 351 ng/mL

---

# PROTOCOL_TEXT: TRM-201-PK-102 single-dose four-period crossover pharmacokinetic study, fasted healthy subjects
# Type: in vivo, human
# MEASUREMENT_PARAMETERS: human, plasma, oral, 25 mg, 102 study, body weight 70.1-77 kg, read-out: arithmetic mean Cmax
VALUE_KIND: Cmax

Just so you know, measured Cmax for CS(=O)(=O)c1ccc(C2=C(c3ccccc3)C(=O)OC2)cc1 [TRM-201] came out at 371 ng/mL

---

# PROTOCOL_TEXT: TRM-201-PK-102 single-dose four-period crossover pharmacokinetic study, fasted healthy subjects
# Type: in vivo, human
# MEASUREMENT_PARAMETERS: human, plasma, oral, 25 mg, 102 study, 53-60 years, read-out: arithmetic mean AUC0-∞
VALUE_KIND: AUC(0-inf) (ng·h/mL)
Number in ng·h/mL, nothing else.

So for CS(=O)(=O)c1ccc(C2=C(c3ccccc3)C(=O)OC2)cc1 , the logged AUC(0-inf) turned out to be 4940

---

# PROTOCOL_TEXT: TRM-201-PK-102 single-dose four-period crossover pharmacokinetic study, fasted healthy subjects
# Type: in vivo, human
# MEASUREMENT_PARAMETERS: human, plasma, oral, 17.5 mg, 102 study only, read-out: geometric mean AUC0-∞
VALUE_KIND: AUC(0-inf) (ng·h/mL)
Give the number; ng·h/mL is assumed, so skip it.

AUC(0-inf) reading for CS(=O)(=O)c1ccc(C2=C(c3ccccc3)C(=O)OC2)cc1 [TRM-201] : 3110
